Recorded pIC50 values (UniProt:P22455) are given below.
Sequence (P22455 22-802): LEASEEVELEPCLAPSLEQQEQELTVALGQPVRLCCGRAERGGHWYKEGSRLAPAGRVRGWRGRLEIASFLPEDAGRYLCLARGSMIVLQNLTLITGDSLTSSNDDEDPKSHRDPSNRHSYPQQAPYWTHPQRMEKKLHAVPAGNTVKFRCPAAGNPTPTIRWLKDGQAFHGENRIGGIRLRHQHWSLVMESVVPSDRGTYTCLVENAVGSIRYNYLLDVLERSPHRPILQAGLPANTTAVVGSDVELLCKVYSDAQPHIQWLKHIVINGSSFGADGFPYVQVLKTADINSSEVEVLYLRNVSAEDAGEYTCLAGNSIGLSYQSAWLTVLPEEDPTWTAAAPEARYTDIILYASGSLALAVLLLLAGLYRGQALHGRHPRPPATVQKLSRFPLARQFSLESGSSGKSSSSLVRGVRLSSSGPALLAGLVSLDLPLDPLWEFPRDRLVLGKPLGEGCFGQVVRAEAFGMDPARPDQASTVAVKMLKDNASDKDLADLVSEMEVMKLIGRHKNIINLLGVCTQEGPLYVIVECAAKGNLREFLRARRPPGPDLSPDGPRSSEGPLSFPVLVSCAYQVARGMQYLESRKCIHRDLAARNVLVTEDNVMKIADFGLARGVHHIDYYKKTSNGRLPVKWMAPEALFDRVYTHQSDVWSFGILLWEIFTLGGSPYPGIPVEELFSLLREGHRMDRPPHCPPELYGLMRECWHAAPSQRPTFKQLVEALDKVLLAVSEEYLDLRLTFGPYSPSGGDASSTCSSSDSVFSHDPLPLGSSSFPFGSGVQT
pIC50: −log10 of the molar value.

Entry C[C@@H]1CCC(c2cc3c4c(cncc4c2)[C@H](C)C3)=C1C=O [323-1, (15R,2R)-Delavatine A] , pIC50 reported as < 4.70

Entry C[C@@H]1CCC(c2cc3c4c(cncc4c2)[C@@H](C)C3)=C1C=O [323-2, (15S,2R)-Delavatine A] , pIC50 reported as < 4.70

---

pIC50: −log10 of the molar value.
Kindly state pIC50 for each of the entries shown.

C[C@@H]1CCC(c2cc3c4c(cncc4c2)[C@@H](C)C3)=C1C=O [323-2, (15S,2R)-Delavatine A] tested on LYN B (Homo sapiens, UniProt P07948) gave pIC50: < 4.70

C[C@@H]1CCC(c2cc3c4c(cncc4c2)[C@H](C)C3)=C1C=O [323-1, (15R,2R)-Delavatine A] tested on LYN B (Homo sapiens, UniProt P07948) gave pIC50: < 4.70
